Molecular target: T1, human integrin avb8 (human)
T1 chain 1: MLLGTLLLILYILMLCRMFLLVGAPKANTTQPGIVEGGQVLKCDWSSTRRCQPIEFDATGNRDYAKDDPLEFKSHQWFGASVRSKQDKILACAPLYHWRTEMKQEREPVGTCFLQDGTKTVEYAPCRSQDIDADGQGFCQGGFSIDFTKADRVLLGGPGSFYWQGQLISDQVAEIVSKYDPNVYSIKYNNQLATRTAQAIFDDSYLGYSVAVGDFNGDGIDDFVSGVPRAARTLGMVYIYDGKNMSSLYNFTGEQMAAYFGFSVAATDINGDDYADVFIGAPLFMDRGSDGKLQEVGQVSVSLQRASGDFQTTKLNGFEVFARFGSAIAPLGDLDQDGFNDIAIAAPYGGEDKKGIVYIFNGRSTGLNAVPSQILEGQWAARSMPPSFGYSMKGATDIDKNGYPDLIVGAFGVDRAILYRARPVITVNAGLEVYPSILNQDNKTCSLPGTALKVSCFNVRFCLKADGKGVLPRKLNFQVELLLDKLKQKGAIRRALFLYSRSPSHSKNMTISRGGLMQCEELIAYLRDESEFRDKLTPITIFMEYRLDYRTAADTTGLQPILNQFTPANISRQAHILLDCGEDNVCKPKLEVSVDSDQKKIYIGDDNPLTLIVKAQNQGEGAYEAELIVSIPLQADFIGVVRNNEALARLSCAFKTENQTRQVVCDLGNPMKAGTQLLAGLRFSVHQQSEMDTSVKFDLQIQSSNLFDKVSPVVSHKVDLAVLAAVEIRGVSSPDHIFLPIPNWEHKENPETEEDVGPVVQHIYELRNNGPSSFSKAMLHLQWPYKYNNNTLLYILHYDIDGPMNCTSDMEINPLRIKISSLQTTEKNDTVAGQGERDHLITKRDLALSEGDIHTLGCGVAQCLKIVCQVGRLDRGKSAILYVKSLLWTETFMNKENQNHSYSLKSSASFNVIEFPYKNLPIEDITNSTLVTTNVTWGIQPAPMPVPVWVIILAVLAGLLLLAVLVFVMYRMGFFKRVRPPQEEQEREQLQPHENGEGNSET
T1 chain 2: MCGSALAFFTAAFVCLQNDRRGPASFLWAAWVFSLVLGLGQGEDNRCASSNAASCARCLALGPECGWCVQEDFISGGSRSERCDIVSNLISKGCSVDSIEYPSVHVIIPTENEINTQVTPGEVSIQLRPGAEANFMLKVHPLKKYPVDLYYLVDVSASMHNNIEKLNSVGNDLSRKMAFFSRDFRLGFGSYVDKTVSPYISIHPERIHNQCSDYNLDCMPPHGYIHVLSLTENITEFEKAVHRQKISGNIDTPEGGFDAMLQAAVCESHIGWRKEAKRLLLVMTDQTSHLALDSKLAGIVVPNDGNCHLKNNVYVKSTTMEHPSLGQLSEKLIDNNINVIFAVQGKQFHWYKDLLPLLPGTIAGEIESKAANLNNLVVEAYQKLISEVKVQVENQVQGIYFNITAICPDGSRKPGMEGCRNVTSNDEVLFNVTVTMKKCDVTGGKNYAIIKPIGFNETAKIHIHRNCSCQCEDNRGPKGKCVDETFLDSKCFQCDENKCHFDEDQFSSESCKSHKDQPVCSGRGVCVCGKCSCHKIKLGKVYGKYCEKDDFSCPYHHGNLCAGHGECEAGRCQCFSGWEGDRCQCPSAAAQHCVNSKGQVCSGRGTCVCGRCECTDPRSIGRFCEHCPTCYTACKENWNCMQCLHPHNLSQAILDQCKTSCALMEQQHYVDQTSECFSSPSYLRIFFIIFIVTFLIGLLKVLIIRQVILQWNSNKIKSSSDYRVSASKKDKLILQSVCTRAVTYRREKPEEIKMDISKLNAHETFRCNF
Experiment: SPR
This section presents binders with their documented Kd values.

binder: Mouse hybridoma ADWA-11 Fab (antibody, V domains shown) VH: EVQLQQSGAELVRPGAFVKLSCKASGFNIKDYYMNWVLQRPEQGLEWIGWIDPDNGNTIYDPKFQGKASITADTSSNTAYLQLSSLTSEDTAVYYCARRLLMDYWGQGTSVTVSS VL: DIVMTQAAPSVPVTPGESVSISCRSTKSLLHFNGNTYLFWFLQRPGQSPQRLIYYMSNLASGVPDRFSGRGSGTDFTLRISRVEAEDVGVYYCMQSLEYPFTFGTGTKLEIK
Kd: 0.536 nM
--
binder: ADWA11 VH03/VK01 Fab (antibody, V domains shown) VH: EVQLVESGGGLVQPGGSLRLSCAASGFNIKDYYMNWVRQAPGKGLEWVGWIDPDNGNTIYDPKFQGRFTISADNAKNSAYLQMNSLRAEDTAVYYCARRLLMDYWGQGTLVTVSS VL: DIQMTQSPSSLSASVGDRVTITCRSTKSLLHFNGNTYLFWYQQKPGKAPKRLIYYMSNLASGVPSRFSGSGSGTDFTLTISSLQPEDFATYYCMQSLEYPFTFGQGTKVEIK
Kd: < 0.1 nM
--
binder: ADWA11 VH05/VK01 (VH05-2_VK01) Fab (antibody, V domains shown) VH: EVQLVESGGGLVQPGGSLRLSCAASGFNIKDYYMNWVRQAPGKGLEWVGWIDPDNGNTIYDPKFQGRFTISADTSKNSAYLQMNSLRAEDTAVYYCARRLLMDYWGQGTLVTVSS VL: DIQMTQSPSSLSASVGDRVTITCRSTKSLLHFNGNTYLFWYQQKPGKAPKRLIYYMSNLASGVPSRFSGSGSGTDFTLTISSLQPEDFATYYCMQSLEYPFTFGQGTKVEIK
Kd: < 0.1 nM
